Data provenance is patent US20030148956A1.

This listing pairs binders with measured CRF1R EC50.
biological target: corticotropin releasing factor 1 receptor; test: cell-based or functional assay
Ends that are not written are not given here.
Give the number; nM is assumed, so skip it.

As a guide, the following entries are already answered.
Binder	Quantity Unit	CRF1R EC50
DNPSLSIDLTFHLLRTLLELARTQSQRERAEQNRIIFDSV (ends and bridges not checked) [human urocortin I fragment]	nM	9
SEEPPISLDLTFHLLREVLEMARAEQLAQQAHSNRKLMEII (ends and bridges not checked) [human corticotropin releasing factor fragment]	nM	19.9

Which measured CRF1R EC50 value corresponds to SQEPPISLDLTFHLLREVLEMTKADQLAQQAHSNRKLLDIA (ends and bridges not checked) [ovine corticotropin releasing factor fragment] ? 27.4
